molecular target: serotonin 2 (5-HT2) receptor (Rattus norvegicus); assay: 5-HT2 receptor affinity, 3H-Ketanserin binding test (Experiment 2); conditions: read-out: RECEPTOR BINDING I-C50 5-HT2; 3H-Ketanserin 0.2 mM (so in the source), rat cerebral cortex, 37° C., 20 minutes
Sequence (P14842 whole entry): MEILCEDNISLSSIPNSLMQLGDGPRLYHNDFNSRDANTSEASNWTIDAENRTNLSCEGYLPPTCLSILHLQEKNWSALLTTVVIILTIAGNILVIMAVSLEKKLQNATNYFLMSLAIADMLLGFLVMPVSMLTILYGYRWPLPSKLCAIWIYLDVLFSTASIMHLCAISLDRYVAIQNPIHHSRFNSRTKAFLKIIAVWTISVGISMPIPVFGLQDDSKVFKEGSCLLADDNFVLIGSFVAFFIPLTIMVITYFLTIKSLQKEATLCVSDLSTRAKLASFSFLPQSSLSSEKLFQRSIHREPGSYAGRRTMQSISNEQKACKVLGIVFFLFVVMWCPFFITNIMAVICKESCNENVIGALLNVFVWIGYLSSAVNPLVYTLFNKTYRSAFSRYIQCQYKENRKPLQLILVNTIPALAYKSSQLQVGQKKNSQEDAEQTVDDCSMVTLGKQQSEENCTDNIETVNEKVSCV
assay-endpoint: IC50 (µM)
Give a bare numeral; the unit µM is implied.

Assign IC50 to the following record: COC(=O)C1CC2c3cc(C(C)(C)C)cc4[nH]c(SC)c(c34)CC2N(C)C1 (stereo not shown)
6.7
